test: Inhibition of HCV genotype 3a NS5A infected in Huh7 cells assessed as reduction in viral replication incubated 3 days and measured by bright Glo-luciferase reporter gene assay
reported-endpoint: pIC50
The value called pIC50 is obtained by taking minus log10 of the concentration in mol/L.

Please review the entries below; each comes with its answer.
COC(=O)N[C@H](C(=O)N1CCC[C@H]1c1ncc(-c2cc(C)c(C#CC#Cc3cnc([C@@H]4CCCN4C(=O)[C@H](NC(=O)OC)c4ccccc4)[nH]3)c(-c3ccccc3)c2)[nH]1)C(C)C | 10.59
COC(=O)N[C@H](C(=O)N1CCC[C@H]1c1ncc(C#CC#Cc2ccc(-c3cnc([C@@H]4CCCN4C(=O)[C@H](NC(=O)OC)c4ccccc4)[nH]3)cc2)[nH]1)C(C)C | 9.20
COC(=O)N[C@H](C(=O)N1CCC[C@H]1c1ncc(C#CC#Cc2ccc(-c3cnc([C@@H]4CCCN4C(=O)[C@@H](NC(=O)OC)C(C)C)[nH]3)cc2-c2ccccc2)[nH]1)C(C)C | 8.88
COC(=O)N[C@H](C(=O)N1CCC[C@H]1c1ncc(-c2ccc(C#CC#Cc3cnc([C@@H]4CCCN4C(=O)[C@H](NC(=O)OC)c4ccccc4)[nH]3)c(Oc3ccccc3)c2)[nH]1)C(C)C | 10.40
COC(=O)N[C@H](C(=O)N1CCC[C@H]1c1ncc(-c2ccc(C#CC#Cc3cnc([C@@H]4CCCN4C(=O)[C@H](NC(=O)OC)c4ccccc4)[nH]3)c(-c3ccc(N(C)C)cc3)c2)[nH]1)C(C)C | 10.42
COC(=O)N[C@H](C(=O)N1CCC[C@H]1c1ncc(C#CC#Cc2ccc(-c3cnc([C@@H]4CCCN4C(=O)[C@@H](NC(=O)OC)C(C)C)[nH]3)cc2-c2ccc(C(C)(C)C)cc2)[nH]1)C(C)C | 8.89

Prompt: Endpoint output: pIC50 of `COC(=O)N[C@H](C(=O)N1CCC[C@H]1c1ncc(C#CC#Cc2ccc(-c3cnc([C@@H]4CCCN4C(=O)[C@@H](NC(=O)OC)C(C)C)[nH]3)cc2-c2cccc(-c3ccccc3)c2)[nH]1)C(C)C` . Value?
Response: 8.55

Prompt: Endpoint output: pIC50 of `COC(=O)N[C@H](C(=O)N1CCC[C@H]1c1ncc(C#CC#Cc2ccc(-c3cnc([C@@H]4CCCN4C(=O)[C@@H](NC(=O)OC)C(C)C)[nH]3)cc2)[nH]1)c1ccccc1` . Value?
Response: 7.97

Prompt: Item under review: `COC(=O)N[C@H](C(=O)N1CCC[C@H]1c1ncc(-c2ccc(C#CC#Cc3cnc([C@@H]4CCCN4C(=O)[C@H](NC(=O)OC)c4ccccc4)[nH]3)cc2)[nH]1)C(C)C` . Reported pIC50?
Response: 9.48

Prompt: Name the reported pIC50 value associated with the compound `COC(=O)N[C@H](C(=O)N1CCC[C@H]1c1ncc(-c2ccc(C#CC#Cc3cnc([C@@H]4CCCN4C(=O)[C@H](NC(=O)OC)c4ccccc4)[nH]3)c(-c3ccc(C(C)(C)C)cc3)c2)[nH]1)C(C)C`
Response: 9.44

----------
experiment: Inhibition of HCV genotype 1b NS5A infected in Huh7 cells assessed as reduction in viral replication incubated 3 days and measured by Bright-Glo luciferase assay
reported-endpoint: pEC50
pEC50 is a log-scale quantity: -log10 of the concentration expressed in molar.

COC(=O)N[C@H](C(=O)N1CCC[C@H]1c1ncc(C#CC#Cc2ccc(-c3cnc([C@@H]4CCCN4C(=O)[C@@H](NC(=O)OC)C(C)C)[nH]3)cc2-c2ccccc2)[nH]1)C(C)C | 11.70
COC(=O)N[C@H](C(=O)N1CCC[C@H]1c1ncc(C#CC#Cc2ccc(-c3cnc([C@@H]4CCCN4C(=O)[C@H](NC(=O)OC)c4ccccc4)[nH]3)cc2)[nH]1)C(C)C | 11.22
COC(=O)N[C@H](C(=O)N1CCC[C@H]1c1ncc(-c2ccc(C#CC#Cc3cnc([C@@H]4CCCN4C(=O)[C@H](NC(=O)OC)c4ccccc4)[nH]3)cc2)[nH]1)C(C)C | 11.15

Prompt: Which measured pEC50 value corresponds to `COC(=O)N[C@H](C(=O)N1CCC[C@H]1c1ncc(-c2ccc(C#CC#Cc3cnc([C@@H]4CCCN4C(=O)[C@H](NC(=O)OC)c4ccccc4)[nH]3)c(N3CCN(C)CC3)c2)[nH]1)C(C)C` ?
Response: 10.47

----------
assay: Inhibition of HCV genotype 1a NS5A infected in Huh7 cells assessed as reduction in viral replication incubated 3 days and measured by bright Glo-luciferase reporter gene assay
pIC50: −log10 of the molar value.
Would you mind labelling by pIC50? At or over 10 is true, under is false.

COC(=O)N[C@H](C(=O)N1CCC[C@H]1c1ncc(-c2ccc(C#CC#Cc3cnc([C@@H]4CCCN4C(=O)[C@@H](NC(=O)OC)C(C)C)[nH]3)cc2)[nH]1)c1ccccc1 | false
COC(=O)N[C@H](C(=O)N1CCC[C@H]1c1ncc(C#CC#Cc2ccc(-c3cnc([C@@H]4CCCN4C(=O)[C@@H](NC(=O)OC)C(C)C)[nH]3)cc2-c2ccc(C(C)(C)C)cc2)[nH]1)C(C)C | false
COC(=O)N[C@H](C(=O)N1CCC[C@H]1c1ncc(-c2ccc(C#CC#Cc3cnc([C@@H]4CCCN4C(=O)[C@H](NC(=O)OC)c4ccccc4)[nH]3)c(Oc3ccccc3)c2)[nH]1)C(C)C | false
COC(=O)N[C@H](C(=O)N1CCC[C@H]1c1ncc(-c2ccc(C#CC#Cc3cnc([C@@H]4CCCN4C(=O)[C@H](NC(=O)OC)c4ccccc4)[nH]3)c(-c3ccc(-c4ccccc4)cc3)c2)[nH]1)C(C)C | false
COC(=O)N[C@H](C(=O)N1CCC[C@H]1c1ncc(-c2ccc(C#CC#Cc3cnc([C@@H]4CCCN4C(=O)[C@H](NC(=O)OC)c4ccccc4)[nH]3)c(N3CCN(C)CC3)c2)[nH]1)C(C)C | false

Prompt: Assess whether reported pIC50 for `COC(=O)N[C@H](C(=O)N1CCC[C@H]1c1ncc(-c2ccc(C#CC#Cc3cnc([C@@H]4CCCN4C(=O)[C@H](NC(=O)OC)c4ccccc4)[nH]3)cc2)[nH]1)C(C)C` sits at 10 or higher.
Response: false

Prompt: Reported pIC50 reaches at least 10 for `COC(=O)N[C@H](C(=O)N1CCC[C@H]1c1ncc(C#CC#Cc2ccc(-c3cnc([C@@H]4CCCN4C(=O)[C@@H](NC(=O)OC)C(C)C)[nH]3)cc2-c2cccc(-c3ccccc3)c2)[nH]1)C(C)C` ?
Response: false

Prompt: Quick check, pIC50 >= 10? `COC(=O)N[C@H](C(=O)N1CCC[C@H]1c1ncc(-c2ccc(C#CC#Cc3cnc([C@@H]4CCCN4C(=O)[C@H](NC(=O)OC)c4ccccc4)[nH]3)c(-c3cccc(C(C)(C)C)c3)c2)[nH]1)C(C)C`
Response: false

Prompt: Check the entry `COC(=O)N[C@H](C(=O)N1CCC[C@H]1c1ncc(-c2ccc(C#CC#Cc3cnc([C@@H]4CCCN4C(=O)[C@H](NC(=O)OC)c4ccccc4)[nH]3)c(-c3ccc(C(C)(C)C)cc3)c2)[nH]1)C(C)C` : does pIC50 equal or exceed 10?
Response: false

Prompt: Dear colleague, could you confirm whether `COC(=O)N[C@H](C(=O)N1CCC[C@H]1c1ncc(-c2ccc(C#CC#Cc3cnc([C@@H]4CCCN4C(=O)[C@H](NC(=O)OC)c4ccccc4)[nH]3)c(-c3cccc(-c4ccccc4)c3)c2)[nH]1)C(C)C` has pIC50 at or above 10?
Response: false

----------
# IC50 per entry
test: Inhibition of HCV genotype 3a NS5A infected in Huh7 cells assessed as reduction in viral replication incubated 3 days and measured by bright Glo-luciferase reporter gene assay
Give the value in nM but do not write nM after it.

Below, 3 compounds whose answers are already recorded.
COC(=O)N[C@H](C(=O)N1CCC[C@H]1c1ncc(-c2ccc(C#CC#Cc3cnc([C@@H]4CCCN4C(=O)[C@H](NC(=O)OC)c4ccccc4)[nH]3)c(-c3cccc(F)c3F)c2)[nH]1)C(C)C | 0.016
COC(=O)N[C@H](C(=O)N1CCC[C@H]1c1ncc(-c2ccc(C#CC#Cc3cnc([C@@H]4CCCN4C(=O)[C@H](NC(=O)OC)c4ccccc4)[nH]3)c(-c3ccc(N4CCN(C)CC4)cc3)c2)[nH]1)C(C)C | 0.353
COC(=O)N[C@H](C(=O)N1CCC[C@H]1c1ncc(C#CC#Cc2ccc(-c3cnc([C@@H]4CCCN4C(=O)[C@@H](NC(=O)OC)C(C)C)[nH]3)cc2-c2ccc3ccccc3c2)[nH]1)C(C)C | 0.864

Prompt: I would be grateful if you could share the reported IC50 for `COC(=O)N[C@H](C(=O)N1CCC[C@H]1c1ncc(-c2ccc(C#CC#Cc3cnc([C@@H]4CCCN4C(=O)[C@H](NC(=O)OC)c4ccccc4)[nH]3)c(N(C)c3ccccc3)c2)[nH]1)C(C)C` .
Response: 0.035

Each recorded value in this set is attributed to BindingDB's records for doi:10.1016/j.bmc.2020.115716.
